Target: full-length beta-Catenin (Uniprot ID P35222) (Homo sapiens (Human)) (UniProt P35222)
Sequence (P35222 2-781 limits assumed): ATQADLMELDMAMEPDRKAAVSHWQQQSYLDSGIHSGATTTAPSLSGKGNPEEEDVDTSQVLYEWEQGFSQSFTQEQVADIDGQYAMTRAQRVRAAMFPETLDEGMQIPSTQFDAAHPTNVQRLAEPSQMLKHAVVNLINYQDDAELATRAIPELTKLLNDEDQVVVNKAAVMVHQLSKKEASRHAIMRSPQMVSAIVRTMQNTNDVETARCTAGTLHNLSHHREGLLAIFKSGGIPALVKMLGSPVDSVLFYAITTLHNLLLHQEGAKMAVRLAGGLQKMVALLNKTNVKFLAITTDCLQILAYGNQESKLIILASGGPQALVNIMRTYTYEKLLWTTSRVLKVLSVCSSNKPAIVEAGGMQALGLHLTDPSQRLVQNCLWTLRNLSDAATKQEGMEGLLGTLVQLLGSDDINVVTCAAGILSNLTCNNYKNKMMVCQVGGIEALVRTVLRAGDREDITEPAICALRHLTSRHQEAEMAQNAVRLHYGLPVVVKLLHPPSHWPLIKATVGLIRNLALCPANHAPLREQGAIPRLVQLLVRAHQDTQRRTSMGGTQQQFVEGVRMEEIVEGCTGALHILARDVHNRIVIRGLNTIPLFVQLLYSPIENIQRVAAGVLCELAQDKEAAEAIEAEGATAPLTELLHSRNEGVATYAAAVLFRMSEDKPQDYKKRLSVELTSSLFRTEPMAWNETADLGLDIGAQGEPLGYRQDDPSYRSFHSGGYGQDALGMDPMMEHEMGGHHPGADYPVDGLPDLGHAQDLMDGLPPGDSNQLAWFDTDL
Test: fluorescence polarization competition; 10 nM full-length beta-catenin + 10 nM 5FAM-TCF4(10-53) probe, peptide titrated
pEC50: −log10 of the molar value. Starred links: 1 amine or outer side, 2 acyl side, 3 side chain; linkers in the order of their positions; H or OH if unused. Positions of bridges follow the written chain, without caps; N, C: chain ends. Non-standard residues stand in square brackets, D forms with d. Primed or numbered codes have the meaning given here. B5(4) = 2,2-bis(4-pentenyl)glycine = 2-amino-2-(pent-4-en-1-yl)hept-6-enoic acid (stitching residue), C=CCCCC(CCCC=C)(N[*:1])C(=O)[*:2]; B5(3) = 2,2-bis(4-pentenyl)glycine (stitching residue), C=CCCCC(CCCC=C)(N[*:1])C(=O)[*:2]; Ala(1H-tetrazol-5-yl) = N[C@@H](Cc1nnn[nH]1)C(=O)O; Phe(3-F) = N[C@@H](Cc1cccc(F)c1)C(=O)O; Bta = N[C@@H](Cc1csc2ccccc12)C(=O)O; αAllylPro = C=CC[C@@]1(C(=O)O)CCCN1; 2Thi = N[C@@H](Cc1cccs1)C(=O)O; 3Thi = N[C@@H](Cc1ccsc1)C(=O)O; S8 = C=CCCCCCC[C@](C)(N)C(=O)O
Quantity measured: pEC50

| Binder | Numeric value |
| --- | --- |
| Ac-[αAllylPro]DA[B5(4)]DEAAFQ[S8][3Thi][Bta]Q-NH2 (staple 1-4, 4-11; also: staple isomer composition, later-eluting HPLC peak) [I-427] | 7.41 |
| Ac-[αAllylPro]DA[B5(4)]DEAA[3Thi]Q[S8][Phe(3-F)][Bta]-NH2 (staple 1-4, 4-11) [I-431] | 5.88 |
| Ac-[αAllylPro]DI[B5(3)]DEAA[2Thi]Q[S8][Phe(3-F)][Bta]Q-NH2 (staple 1-4, 4-11) [I-412] | 7.04 |
| Ac-[αAllylPro]DA[B5(4)]D[2Thi]AAFV[S8][Phe(3-F)][Bta]Q-NH2 (staple 1-4, 4-11) [I-402] | 5.30 |
| Ac-[αAllylPro]DA[B5(3)]D[Ala(1H-tetrazol-5-yl)]AAFQ[S8]F[Bta]Q-NH2 (staple 1-4, 4-11) [I-413] | 7.05 |

This collection of values is drawn from patent US20240116985A1.
